Data provenance is patent US8039505B2.

assay: Pharmacokinetics in male Swiss Albino mouse, intravenous and oral (LC-MS/MS of plasma); type: in vivo; details: male, Swiss Albino, mouse, plasma, oral, 15 mg/kg, mouse, oral solution 15 mg/kg, 8 h, N = 3; read-out: Mean plasma concentration
measured attribute: concentration at 8 h
Hi, when you answer, please include the unit after the number. Thanks!

-- ask Consider the molecule C(=NNc1cccc2cccnc12)c1c[nH]c2ccccc12 . State its measured concentration at 8 h.
-- reply 0.0753 µg/mL

----------
assay: Pharmacokinetics in male Swiss Albino mouse, intravenous and oral (LC-MS/MS of plasma); type: in vivo; conditions: male, Swiss Albino, mouse, plasma, iv, 3 mg/kg, mouse, intravenous bolus 3 mg/kg, 12 h, individual mice; BLQ = below LLOQ 1.04 ng/mL; read-out: Individual plasma concentration
measured attribute: concentration at 12 h (ng/mL)
Quick note: give the figure in ng/mL, leave out the unit.

-- ask Given the compound C(=NNc1cccc2cccnc12)c1c[nH]c2ccccc12 , write its reported concentration at 12 h.
-- reply 1.68

----------
experiment: Pharmacokinetics in male Swiss Albino mouse, intravenous and oral (LC-MS/MS of plasma); format: in vivo; settings: male, Swiss Albino, mouse, plasma, iv, 3 mg/kg, mouse, intravenous bolus 3 mg/kg, 0.083 h, N = 2; read-out: Mean plasma concentration
measured attribute: concentration at 0.083 h (ng/mL)
Hi! Could you send only the number? It should be in ng/mL, unit omitted.

-- ask Could you please provide reported concentration at 0.083 h for C(=NNc1cccc2cccnc12)c1c[nH]c2ccccc12 [Compound C3] ? Thanks!
-- reply 1690

----------
assay: Pharmacokinetics in male Swiss Albino mouse, intravenous and oral (LC-MS/MS of plasma); assay type: in vivo; conditions: male, Swiss Albino, plasma; mouse, oral solution 15 mg/kg
measured attribute: AUC(0-t)
Quote the value and follow it with the unit of measurement.

-- ask Please list AUC(0-t) recorded for the compound C(=NNc1cccc2cccnc12)c1c[nH]c2ccccc12 [Compound C3]
-- reply 1140 ng·h/mL

----------
assay: Pharmacokinetics in male Swiss Albino mouse, intravenous and oral (LC-MS/MS of plasma); type: in vivo; details: male, Swiss Albino, mouse, plasma, iv, 3 mg/kg, mouse, IV 3 mg/kg; read-out: T1/2 (converted)
measured attribute: half-life
Answers without a unit are incomplete; give the number and then its unit.

-- ask // fetch half-life given entry C(=NNc1cccc2cccnc12)c1c[nH]c2ccccc12
-- reply 100 min

----------
Assay: Pharmacokinetics in male Swiss Albino mouse, intravenous and oral (LC-MS/MS of plasma)
Format: in vivo
Conditions: male, Swiss Albino, mouse, plasma, oral, 15 mg/kg, mouse, oral solution 15 mg/kg, 1 h, N = 3; read-out: Mean plasma concentration
Method: The pharmacokinetics of 1H-indole-3-carbaldehyde quinolin-8-ylhydrazone (Compound C3) was evaluated following intravenous (3 mg/kg) and oral (15 mg/kg) solution administration of 1H-indole-3-carbaldehyde quinolin-8-ylhydrazone in male Swiss Albino mouse. The effect of the Test Item, 1H-indole-3-carbaldehyde quinolin-8-ylhydrazone on complete blood count (CBC) was also evaluated. Pharmacokinetic phase consisted of two groups, Group 1 and Group 2. […]
measured attribute: concentration at 1 h (ng/mL)
State the answer as a number, implicitly in ng/mL.

-- ask Give recorded concentration at 1 h. C(=NNc1cccc2cccnc12)c1c[nH]c2ccccc12
-- reply 199

----------
assay: Pharmacokinetics in male Swiss Albino mouse, intravenous and oral (LC-MS/MS of plasma); format: in vivo; conditions: male, Swiss Albino, plasma; mouse, oral solution 15 mg/kg
measured attribute: Tmax (h)
Express it in h; write the number only.

-- ask Given the molecule C(=NNc1cccc2cccnc12)c1c[nH]c2ccccc12 , write its reported Tmax.
-- reply 1

----------
assay: Pharmacokinetics in male Swiss Albino mouse, intravenous and oral (LC-MS/MS of plasma); format: in vivo; settings: male, Swiss Albino, plasma; mouse, IV 3 mg/kg; first sampling point
measured attribute: Tmax (min)
Please reply with the bare figure in min and do not write the unit itself.

-- ask State, in one line, measured Tmax of C(=NNc1cccc2cccnc12)c1c[nH]c2ccccc12
-- reply 4.98

----------
test: Pharmacokinetics in male Swiss Albino mouse, intravenous and oral (LC-MS/MS of plasma); type: in vivo; settings: male, Swiss Albino, plasma; mouse, IV 3 mg/kg
measured attribute: AUC(0-t) (ng·h/mL)
Field: numeric (ng·h/mL). Do not append units.

-- ask Give AUC(0-t) for C(=NNc1cccc2cccnc12)c1c[nH]c2ccccc12 [Compound C3]
-- reply 909

----------
Assay: Pharmacokinetics in male Swiss Albino mouse, intravenous and oral (LC-MS/MS of plasma)
Format: in vivo
Conditions: male, Swiss Albino, mouse, plasma, iv, 3 mg/kg, mouse plasma, IV 3 mg/kg, 0.25 h samples; read-out: Initial conc. (repeat analysis)
Method: The pharmacokinetics of 1H-indole-3-carbaldehyde quinolin-8-ylhydrazone (Compound C3) was evaluated following intravenous (3 mg/kg) and oral (15 mg/kg) solution administration of 1H-indole-3-carbaldehyde quinolin-8-ylhydrazone in male Swiss Albino mouse. The effect of the Test Item, 1H-indole-3-carbaldehyde quinolin-8-ylhydrazone on complete blood count (CBC) was also evaluated. Pharmacokinetic phase consisted of two groups, Group 1 and Group 2. […]
measured attribute: concentration at 0.25 h (ng/mL)
Dear colleague, please return just the value in ng/mL, with no unit written.

-- ask Identify measured concentration at 0.25 h associated with C(=NNc1cccc2cccnc12)c1c[nH]c2ccccc12 [Compound C3]
-- reply 130
